The reported numbers originate from patent US11352350B2.

testedSystem: IRAK4 (Homo sapiens (Human))
test: hPBMC IRAK4 degradation flow assay
Format: cell-based
assayConditions: hPBMC monocyte, 20 hrs; read-out: IRAK4 degradation in hPBMC monocyte: DC50
Measured DC50 accompanies every entry in the list below.

compound	DC50
CN1C(=O)C(C2CCC(=O)NC2=O)c2cc(CCCOC3CCN(C[C@H]4CC[C@H](C5N=C(NC(=O)c6cnn7ccc(N8C[C@H]9C[C@@H]8CO9)nc67)C(C(F)F)=N5)CC4)CC3)ccc21 (some centres unmarked)	0.01 to 0.1 µM
C[C@@H]1CN(c2ccn3ncc(C(=O)Nc4cn([C@H]5CC[C@H](CN6CCC(OCC#Cc7cccc8c7n(C)c(=O)n8C7CCC(=O)NC7=O)CC6)CC5)nc4C(F)F)c3n2)C[C@@H](C)O1 (some centres unmarked)	< 0.01 µM
Cn1c(=O)n(C2CCC(=O)NC2=O)c2cccc(C[C@H]3CC[C@H](N(C)C[C@H]4CC[C@H](n5cc(NC(=O)c6cnn7ccc(N8C[C@H]9C[C@@H]8CO9)nc67)c(C(F)F)n5)CC4)CC3)c21 (some centres unmarked)	< 0.01 µM
Cc1ccc(-c2nn([C@H]3CC[C@H](C(=O)N4CCC5(CC4)CN(CCCc4cccc6c4n(C)c(=O)n6C4CCC(=O)NC4=O)C5)CC3)cc2NC(=O)c2cnn3cccnc23)nc1 (some centres unmarked)	< 0.01 µM
Cn1c(=O)n(C2CCC(=O)NC2=O)c2cccc(CCCOC3CCN(C[C@H]4CC[C@H](n5cc(NC(=O)c6cnn7ccc(N8C[C@H]9CC[C@@H](C8)O9)nc67)c(C(F)F)n5)CC4)CC3)c21 (some centres unmarked)	< 0.01 µM

###

testedSystem: IRAK4 (Homo sapiens (Human), UniProt Q9NWZ3)
Sequence (Q9NWZ3 whole entry): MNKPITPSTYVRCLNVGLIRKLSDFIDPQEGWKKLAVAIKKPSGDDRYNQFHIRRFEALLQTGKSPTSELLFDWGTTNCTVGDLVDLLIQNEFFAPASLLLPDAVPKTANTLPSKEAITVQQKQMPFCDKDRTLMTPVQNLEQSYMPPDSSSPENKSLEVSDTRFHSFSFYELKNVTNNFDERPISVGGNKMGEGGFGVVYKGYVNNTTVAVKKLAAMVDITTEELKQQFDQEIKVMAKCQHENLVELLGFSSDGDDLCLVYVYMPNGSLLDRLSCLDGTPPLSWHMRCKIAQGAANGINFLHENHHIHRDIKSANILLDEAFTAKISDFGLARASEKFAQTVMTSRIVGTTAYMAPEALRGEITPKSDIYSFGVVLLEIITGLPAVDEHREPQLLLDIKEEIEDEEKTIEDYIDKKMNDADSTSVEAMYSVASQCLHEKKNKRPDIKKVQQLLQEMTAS
test: IRAK4 degradation in human whole blood monocyte - flow cytometry
Format: cell-based
assayConditions: read-out: IRAK4 degradation in whole blood monocyte-Flow cytometry: Average external Abs IC50

compound	DC50
CC(C)c1nn([C@H]2CC[C@H](CN(C)C[C@@H]3CN(CCCc4ccc5c(c4)n(C)c(=O)n5C4CCC(=O)NC4=O)CCO3)CC2)cc1NC(=O)c1coc(-c2ccnc(NCC3CC3)c2)n1 (stereo partly shown)	100 to 500 nM
CN(CCCOCCCc1ccc2c(c1)c1cccnc1n2C1CCC(=O)NC1=O)C[C@H]1CC[C@H](n2cc(NC(=O)c3coc(-c4ccnc(NCC5CC5)c4)n3)c(C(F)F)n2)CC1 (stereo partly shown)	500 to 1000 nM
CN(CCCOCCCc1cccc2c1n(C)c(=O)n2C1CCC(=O)NC1=O)C(=O)[C@H]1CC[C@H](n2cc(NC(=O)c3coc(-c4ccnc(NCC(F)(F)F)c4)n3)c(C(N)=O)n2)CC1 (stereo partly shown) [I-28]	50 to 100 nM
CN(C[C@H]1CN(CC#Cc2ccc3c(c2)n(C)c(=O)n3C2CCC(=O)NC2=O)CCO1)C[C@H]1CC[C@H](n2cc(NC(=O)c3coc(-c4ccnc(NCC5CC5)c4)n3)c(C(F)F)n2)CC1 (stereo partly shown)	50 to 100 nM
O=C1CCC(n2c3ccccc3c3c(CCCOCCOCCNC[C@H]4CC[C@H](n5cc(NC(=O)c6coc(-c7ccnc(NCC8CC8)c7)n6)c(C(F)F)n5)CC4)ccnc32)C(=O)N1 (stereo partly shown)	100 to 500 nM
C=C(C)c1nn([C@H]2CC[C@H](C(=O)N(C)CCCOCCCc3cccc4c3n(C)c(=O)n4C3CCC(=O)NC3=O)CC2)cc1NC(=O)c1coc(-c2ccnc(NCC3CC3)c2)n1 (stereo partly shown)	50 to 100 nM
CN(CCCCOCCCCc1cccc2c1n(C)c(=O)n2C1CCC(=O)NC1=O)C[C@H]1CC[C@H](n2cc(NC(=O)c3coc(-c4ccnc(NCC5CC5)c4)n3)c(C(F)F)n2)CC1 (stereo partly shown)	50 to 100 nM
O=C1CCC(n2c(=O)oc3c(CCCOCCNC(=O)[C@H]4CC[C@H](n5cc(NC(=O)c6coc(-c7ccnc(NCC8CC8)c7)n6)c(C(F)F)n5)CC4)cccc32)C(=O)N1 (stereo partly shown)	100 to 500 nM
O=C1CCC(n2c3ccc(CCCOCCOCCNCC4CCC(n5cc(NC(=O)c6coc(-c7ccnc(NCC8CC8)c7)n6)c(C(F)F)n5)CC4)cc3c3cccnc32)C(=O)N1 (stereo not shown)	500 to 1000 nM
CN(CCOCCOCCCc1ccc2c(c1)oc(=O)n2C1CCC(=O)NC1=O)C[C@H]1CC[C@H](n2cc(NC(=O)c3coc(-c4ccnc(NCC5CC5)c4)n3)c(C(F)F)n2)CC1 (stereo partly shown)	50 to 100 nM

###

A collection of compounds and their measured DC50
testedSystem: IRAK4 (Homo sapiens (Human), UniProt Q9NWZ3)
test: IRAK4 MSD degradation in OCI-LY10
Assay type: cell-based
assayConditions: OCI-LY10, 4 hrs; read-out: IRAK4 MSD degradation in OCI-LY10 at 4 hrs: DC50
Experimental: Degradation of IRAK4 in OCI-LY10 was quantitatively measured using Meso Scale Discovery technology. […] Compounds were then added to the assay plates with a final top concentration of 1 to 10 μM in a 1:3 dilution series with total of 8 doses. […] The assay plates were then incubated at room temperature for 1 hour, washed 3 times with 150 μL/well TB ST buffer, and 150 μL/well MSD reading buffer (Meso Scale Discovery catalog number R92TC-2) was added. […]

compound	DC50
O=C1CCC(n2c3ccccc3c3c(CCCN4CC5(CCN(C(=O)[C@H]6CC[C@H](n7cc(NC(=O)c8cnn9ccc(N%10C[C@H]%11C[C@@H]%10CO%11)nc89)c(C(F)F)n7)CC6)CC5)C4)ccnc32)C(=O)N1 (stereo partly shown) [I-447]	10 to 100 nM
CN(C(=O)c1cnn2ccc(N3CCOCC3)nc12)c1cn([C@H]2CC[C@H](CN3CCN(Cc4ccc(COc5cccc6c5CN(C5CCC(=O)NC5=O)C6=O)cc4)CC3)CC2)nc1C(F)F (stereo partly shown) [I-503]	> 1000 nM
C[C@@H]1CN(c2ccn3ncc(C(=O)Nc4cn([C@H]5CC[C@H](C(=O)N6CCC7(CC6)CN(CCCc6cccc8c6n(C)c(=O)n8C6CCC(=O)NC6=O)C7)CC5)nc4C(F)F)c3n2)C[C@H](C)O1 (stereo partly shown) [I-480]	10 to 100 nM
CN(C[C@H]1CC[C@H](n2cc(NC(=O)c3cnn4ccc(NCCC(C)(C)O)nc34)c(C(F)F)n2)CC1)[C@H]1CC[C@H](Nc2cccc3c2C(=O)N(C2CCC(=O)NC2=O)C3=O)CC1 (stereo partly shown) [I-502]	< 10 nM
CN(CCN1CCO[C@@H](CNc2cccc3c2C(=O)N(C2CCC(=O)NC2=O)C3=O)C1)C[C@H]1CC[C@H](n2cc(NC(=O)c3cnn4ccc(N5C[C@H]6C[C@@H]5CO6)nc34)c(C(F)F)n2)CC1 (stereo partly shown) [I-500]	100 to 1000 nM
CN(C[C@H]1CC[C@H](n2cc(NC(=O)c3cnn4ccc(N5C[C@H]6CC5CO6)nc34)c(C(F)F)n2)CC1)C1CCC2(CC1)CC(Nc1cccc3c1C(=O)N(C1CCC(=O)NC1=O)C3=O)C2 (stereo partly shown) [I-454]	100 to 1000 nM
C[C@@H]1CN(c2ccn3ncc(C(=O)NC4=NC([C@H]5CC[C@H](CN6CCC(CCCc7cccc8c7n(C)c(=O)n8C7CCC(=O)NC7=O)CC6)CC5)N=C4C(F)F)c3n2)C[C@@H](C)O1 (stereo partly shown) [I-537]	< 10 nM

###

Parameter: IC50. Scope: all listed entries.
Test system: TNFα
test: Human whole blood LPS TNFα assay
Type: cell-based
assayConditions: 20 h pretreatment, LPS 5 h, read-out: IRAK4 human whole blood LPS TNFa inhibition: Average external-IC50

compound	IC50
CN(CCCOCCCc1ccc2c(c1)c1cccnc1n2C1CCC(=O)NC1=O)C[C@H]1CC[C@H](n2cc(NC(=O)c3coc(-c4ccnc(NCC5CC5)c4)n3)c(C(F)F)n2)CC1 (some centres unmarked) [I-46]	> 1 µM
Cn1c(=O)n(C2CCC(=O)NC2=O)c2cccc(CCCOCC3CN(C[C@H]4CC[C@H](n5cc(NC(=O)c6coc(-c7ccnc(NCC8CC8)c7)n6)c(C(F)F)n5)CC4)C3)c21 (some centres unmarked) [I-65]	> 1 µM
Cn1c(=O)n(C2CCC(=O)NC2=O)c2ccc(CCCCOCCCCNC[C@H]3CC[C@H](n4cc(NC(=O)c5coc(-c6ccnc(NCC(F)(F)F)c6)n5)c(C(N)=O)n4)CC3)cc21 (some centres unmarked) [I-9]	> 1 µM
CN(C[C@H]1CN(CC#Cc2ccc3c(c2)n(C)c(=O)n3C2CCC(=O)NC2=O)CCO1)C[C@H]1CC[C@H](n2cc(NC(=O)c3coc(-c4ccnc(NCC5CC5)c4)n3)c(C(F)F)n2)CC1 (some centres unmarked) [I-61]	> 1 µM
Cn1c(=O)n(C2CCC(=O)NC2=O)c2cccc(CCCOCCOCCNC[C@H]3CC[C@H](n4cc(NC(=O)c5coc(-c6ccnc(NCC(F)(F)F)c6)n5)c(C(N)=O)n4)CC3)c21 (some centres unmarked) [I-6]	> 1 µM
Cn1c(=O)n(C2CCC(=O)NC2=O)c2cccc(CCCN3CCO[C@H](CNC[C@H]4CC[C@H](n5cc(NC(=O)c6coc(-c7ccnc(NCC8CC8)c7)n6)c(C(F)F)n5)CC4)C3)c21 (some centres unmarked) [I-37]	0.1 to 0.5 µM
CN(C[C@@H]1CN(CCCc2ccc3c(c2)n(C)c(=O)n3C2CCC(=O)NC2=O)CCO1)C[C@H]1CC[C@H](n2cc(NC(=O)c3coc(-c4ccnc(NCC5CC5)c4)n3)c(C(F)F)n2)CC1 (some centres unmarked) [I-36]	0.1 to 0.5 µM
Cn1c(=O)n(C2CCC(=O)NC2=O)c2cccc(CCCN3CCO[C@@H](CNC[C@H]4CC[C@H](n5cc(NC(=O)c6coc(-c7ccnc(NCC8CC8)c7)n6)c(C(F)F)n5)CC4)C3)c21 (some centres unmarked) [I-38]	0.1 to 0.5 µM
